- Test name: amyloid nucleation score (Sup35N fusion, yeast selection) (log enrichment); library NNK2; higher = more nucleation; inactive = no reads after selection;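 further: zero at mode of non-aggregating sequences after 7 days selection at 30°C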
Each entry below lists one item and its recorded amyloid nucleation score value.

{"Substance": "ILELDMLLCKKVTHL", "amyloid nucleation score": 4.3}
{"Substance": "ILVRTSCGGM", "amyloid nucleation score": -0.898}
{"Substance": "KRDPLFRVLGT", "amyloid nucleation score": 0.071}
{"Substance": "GAMTSMDVCL", "amyloid nucleation score": -0.062}
{"Substance": "TSGMYMCFLMLLVFCQLLNG", "amyloid nucleation score": -1.21}
{"Substance": "RKSYPRIYVHPSWKCVGDRY", "amyloid nucleation score": 0.066}
{"Substance": "LFGSVHGLTCVLSGLYCVQH", "amyloid nucleation score": 10.3}
{"Substance": "NLVFSTRIHKFFLNRGEG", "amyloid nucleation score": 5.15}
{"Substance": "RLFVPFVFFQAMPTEREPFH", "amyloid nucleation score": -0.79}
{"Substance": "RHKYMIKVILRHFTFIIIGS", "amyloid nucleation score": -0.05}
{"Substance": "VLWCDKWVGNNMKDGELTLW", "amyloid nucleation score": 0.446}
{"Substance": "SCSVCWSLSMV", "amyloid nucleation score": 1.31}
{"Substance": "PSWGSLCMSQNHMHLEV", "amyloid nucleation score": -0.087}
{"Substance": "GQCPIHMCGRNTYMK", "amyloid nucleation score": 0.05}
{"Substance": "LDWRTQFLCV", "amyloid nucleation score": 1.19}
{"Substance": "LCNNPNGGIGQLKVL", "amyloid nucleation score": 0.515}
{"Substance": "FVLCLDLHDESQERWETIRR", "amyloid nucleation score": 0.925}
{"Substance": "TSVVNLNRMAFKTKFLQNTI", "amyloid nucleation score": -1.1}
{"Substance": "DSCFRVLHRTGFVFMSWLII", "amyloid nucleation score": 4.82}
{"Substance": "IRFKVMGFMFFVSW", "amyloid nucleation score": 0.094}
{"Substance": "SSYRLDAWVKKLFSLSQRKG", "amyloid nucleation score": -0.052}
{"Substance": "LSFKRDELVNLNRFSVQFAQ", "amyloid nucleation score": -0.694}
{"Substance": "ENLPGWLLVKMVQYY", "amyloid nucleation score": 0.276}
{"Substance": "WWYRLLWDKSCL", "amyloid nucleation score": -1.06}
{"Substance": "PCKNIMVYNSLTDAWPCLYM", "amyloid nucleation score": 0.093}
{"Substance": "PMRKADRYSSSSET", "amyloid nucleation score": -0.479}
{"Substance": "YRNCLPMGGNALS", "amyloid nucleation score": -0.964}
{"Substance": "ISHMYCSFGSLVLFSGIRFR", "amyloid nucleation score": -0.774}
{"Substance": "IDMYRRQYDQSQIKCNFSS", "amyloid nucleation score": -0.087}
{"Substance": "SYYDGCQS", "amyloid nucleation score": 0.646}
{"Substance": "LYVRRYNWSHVGFHFCGLDT", "amyloid nucleation score": -0.384}
{"Substance": "GVDFKVVTKSWIIYNYIIGM", "amyloid nucleation score": 3.07}
{"Substance": "NMRTNLWNIIAFLSSRSIAQ", "amyloid nucleation score": 0.857}
{"Substance": "VRFQELAR", "amyloid nucleation score": 0.343}
{"Substance": "STCLTLSMRLLA", "amyloid nucleation score": 3.84}
{"Substance": "VVSFNWLEYVSNMSQMNWDG", "amyloid nucleation score": -0.015}
{"Substance": "LSRQGRLESVKDGRSMWVSG", "amyloid nucleation score": -0.283}
{"Substance": "FYKGYACHITAQYNLCVDNA", "amyloid nucleation score": -0.146}
{"Substance": "ILISIISFTKSCNISISLEW", "amyloid nucleation score": -0.603}
{"Substance": "KLQTLLQWFGLY", "amyloid nucleation score": -0.392}
{"Substance": "ALLALTVLIYNLIDMLQVNR", "amyloid nucleation score": 0.728}
{"Substance": "ERNYVT", "amyloid nucleation score": -0.525}
{"Substance": "HSGMRMRPASSCSPKKP", "amyloid nucleation score": 0.189}
{"Substance": "TLLNAYNNTLVWIWFVSMPV", "amyloid nucleation score": 5.46}
{"Substance": "FYRNLLTFFYGVSFN", "amyloid nucleation score": -0.807}
{"Substance": "TLLLTWQY", "amyloid nucleation score": 4.46}
{"Substance": "LSSGIMSGCEGGAWCCH", "amyloid nucleation score": 0.605}
{"Substance": "SSRYPVIWESFVPNWTNSHF", "amyloid nucleation score": -1.22}
{"Substance": "VFMFMTQVSRKSYALPRTAA", "amyloid nucleation score": 3.02}
{"Substance": "KTCTLIGAMLIA", "amyloid nucleation score": -0.385}
{"Substance": "RSGYGWTVLFERLSKHCEFK", "amyloid nucleation score": -0.301}
{"Substance": "LQSSKVWDFMLGLGVSGRVE", "amyloid nucleation score": 1.55}
{"Substance": "PPNVLDCFNVL", "amyloid nucleation score": -0.501}
{"Substance": "WFTYQVAYVWYGRNFDTSPA", "amyloid nucleation score": 7.96}
{"Substance": "YGQAMWASIFMIYRLPKTLR", "amyloid nucleation score": -1.13}
{"Substance": "CTRMRPPYLEHQSCDRLSSR", "amyloid nucleation score": 0.241}
{"Substance": "PRLRAAG", "amyloid nucleation score": 0.758}
{"Substance": "STPPLILQSYV", "amyloid nucleation score": -1.17}
{"Substance": "AAKDSAWFHAIWVKKVRREV", "amyloid nucleation score": 1.01}
{"Substance": "KLKSDLMNRTVGDLPVRARP", "amyloid nucleation score": 5.11}
{"Substance": "PYQSTCSDRSFYVCVCELHW", "amyloid nucleation score": 0.241}
{"Substance": "IHGVFCEFVRIIRNVGSAIR", "amyloid nucleation score": -0.226}
{"Substance": "IKLLLMSLTVSVTGILQFKP", "amyloid nucleation score": 4.51}
{"Substance": "CVLQNWYSTSTPKSWLRGNV", "amyloid nucleation score": 0.678}
{"Substance": "RGYDLVGSIIFSMQKRLRKK", "amyloid nucleation score": -1.24}
{"Substance": "VYCEDGY", "amyloid nucleation score": 0.641}
{"Substance": "VYFELVPVGTYL", "amyloid nucleation score": -0.214}
{"Substance": "TVNLGSYSEMRFLLLQEQAS", "amyloid nucleation score": -0.747}
{"Substance": "YEDSGRRKLLNGP", "amyloid nucleation score": -0.381}

----------
- Test name: amyloid nucleation score (Sup35N fusion, yeast selection) (log enrichment); library NNK3; higher = more nucleation; inactive = no reads after selection

{"Entry sequence": "YGRDQSRYYLYSSMGEV", "amyloid nucleation score": 0.148}
{"Entry sequence": "GSKFIFFLMFYGVWLRSPSK", "amyloid nucleation score": "inactive"}
{"Entry sequence": "GECTWTDVPMANSPRFVSEY", "amyloid nucleation score": "inactive"}
{"Entry sequence": "FKCTVIGDTILPNTFSLWRF", "amyloid nucleation score": "inactive"}
{"Entry sequence": "TSLSRHTIPYNHVLYSTWW", "amyloid nucleation score": "inactive"}
{"Entry sequence": "LFNNFYLVSFGWLDGG", "amyloid nucleation score": 2.31}
{"Entry sequence": "YFRANVRLKLEVMQRKKSPS", "amyloid nucleation score": 2.28}
{"Entry sequence": "TDMHGFNNIS", "amyloid nucleation score": "inactive"}
{"Entry sequence": "RVWMIGGYSDLFHWNSVLVS", "amyloid nucleation score": "inactive"}

----------
- Test name: amyloid nucleation score (Sup35N fusion, yeast selection) (log enrichment); library NNK2; higher = more nucleation; inactive = no reads after selection
Label scheme, based on amyloid nucleation score: band A: < -0.08; band B: ≥ -0.08 and < 0.7; band C: ≥ 0.7

{"Substance": "HITRGVVPTAV", "Discrete label": "band B"}
{"Substance": "PHPIDNKRMTTPNIADAPPR", "Discrete label": "band B"}
{"Substance": "QSLVIN", "Discrete label": "band C"}
{"Substance": "KSCVGYLSAMESSVRL", "Discrete label": "band B"}
{"Substance": "FDLWIPGAVVEVIDMGSAAR", "Discrete label": "band B"}
{"Substance": "VIYLVLGKTRLNIELSVLST", "Discrete label": "band C"}
{"Substance": "EWRKPGFVRGLRLNCVLRYF", "Discrete label": "band A"}
{"Substance": "ENIYRRLLVLELLVWSCRGK", "Discrete label": "band B"}
{"Substance": "TQYFYIMLQ", "Discrete label": "band C"}
{"Substance": "LFSTTRFVAHKAGR", "Discrete label": "band B"}
{"Substance": "IIVFKEESYIYKTRSVLGSR", "Discrete label": "band A"}
{"Substance": "CMISTDLKVTRALSTHKNCI", "Discrete label": "band B"}
{"Substance": "CLLVSEQRSRRHRRGALCIG", "Discrete label": "band C"}
{"Substance": "IARVDLKFMESIRSHMV", "Discrete label": "band C"}
{"Substance": "DSWLGRMTRDKGNASFRSAS", "Discrete label": "band C"}
{"Substance": "AVDSHVIYSV", "Discrete label": "band A"}
{"Substance": "LERWYYPMS", "Discrete label": "band B"}
{"Substance": "IIMFRVYVM", "Discrete label": "band A"}
{"Substance": "TCWSFECTIEACLLDHVSTR", "Discrete label": "band C"}
{"Substance": "NINRAQHISDVSCPDENLCI", "Discrete label": "band C"}
{"Substance": "DVRFVTEFKSYRSCCKQSMF", "Discrete label": "band C"}
{"Substance": "RQVSHVNFAVLNINYNWYRS", "Discrete label": "band C"}
{"Substance": "LLVDTNYSSQMASERFRTCG", "Discrete label": "band A"}
{"Substance": "NTFWLGFPYSLLQALCHALD", "Discrete label": "band B"}
{"Substance": "PCLKGVITLLLKGPGPHRVN", "Discrete label": "band B"}
{"Substance": "FNLLEVTRPPMRMMGMM", "Discrete label": "band C"}
{"Substance": "GYVSRDSFVLYWPSRNDCLA", "Discrete label": "band B"}
{"Substance": "SQCARKYVVASVSMLTDVTH", "Discrete label": "band C"}
{"Substance": "RDFYRWNMQ", "Discrete label": "band C"}
{"Substance": "HRLFSY", "Discrete label": "band A"}
{"Substance": "DIYFGDQNDCLKR", "Discrete label": "band A"}
{"Substance": "LVSFKGKVLFFIS", "Discrete label": "band C"}
{"Substance": "YRMLSIKCGM", "Discrete label": "band A"}
{"Substance": "IVMSCSMNPIEAYEVLCEFF", "Discrete label": "band B"}
{"Substance": "PSNTIYHFIAELNEYETPRF", "Discrete label": "band B"}
{"Substance": "VVPFIKTRCNPV", "Discrete label": "band A"}
{"Substance": "RHRKMS", "Discrete label": "band A"}
{"Substance": "NLGHTCVCFKRIRSYFFSYR", "Discrete label": "band A"}
{"Substance": "SYRSVYYLVMGFPIGHH", "Discrete label": "band A"}
{"Substance": "IDFKHVL", "Discrete label": "band A"}
{"Substance": "TCAQYKHGTTVDSNLRSTY", "Discrete label": "band A"}
{"Substance": "VVDCKGVLLAFSNRIFGWTT", "Discrete label": "band B"}
{"Substance": "TTGRKFMMIVTGGCGESGRF", "Discrete label": "band A"}
{"Substance": "HAVWSVFCEFIVRQCYGLYF", "Discrete label": "band A"}
{"Substance": "NLDCLYTLAS", "Discrete label": "band B"}
{"Substance": "TGNDFSCFPRALEMATWTTV", "Discrete label": "band B"}
{"Substance": "DLAFNFASWLCRAKFNGSRC", "Discrete label": "band C"}
{"Substance": "MDVMVDW", "Discrete label": "band A"}
{"Substance": "GVGYPVFYWKVSMYSRDSDH", "Discrete label": "band C"}
{"Substance": "WFPALEYKCAQGQDRQQRPV", "Discrete label": "band B"}
{"Substance": "NWLQGVYCCGKVIGSLTSTD", "Discrete label": "band C"}
{"Substance": "QYDSSFT", "Discrete label": "band A"}
{"Substance": "GEIAPGWEQLWDNEWGSDWA", "Discrete label": "band B"}
{"Substance": "VIGTTGMYLCVVLETIHNWC", "Discrete label": "band C"}
{"Substance": "DCLLSFVRVRSSPSVRY", "Discrete label": "band C"}
{"Substance": "SSVVFCSNPGVYGSSRWTSV", "Discrete label": "band B"}
{"Substance": "IKTSDYNHFRYWSKRPYVSW", "Discrete label": "band A"}
{"Substance": "YCTNFYVEAGAIGS", "Discrete label": "band A"}
{"Substance": "MVVSFGRLGGNLRRNLKVRI", "Discrete label": "band B"}
{"Substance": "KIFTSCKELTVVGLVASYMN", "Discrete label": "band C"}
{"Substance": "LFEDVMRKGRWRDASGRWKH", "Discrete label": "band C"}
{"Substance": "RKTLVGDNLNEGVKSWGWSR", "Discrete label": "band A"}

Hello, the source for this data is the supplement of paper PMC12042874, in case you need it.
